Each recorded value in this set is attributed to ChEMBL document CHEMBL1133755.

Recorded pIC50 values for a group of molecules are listed next.
# Test system: HFF
# assay explanation: Compound was tested for antiviral activity against human cytomegalovirus (HCMV) by plaque reduction assay using HFF cells
# Type: functional, cell-based
In simple prose, pIC50 is minus the logarithm base ten of a concentration in moles per litre.

[in] Notebook entry, HFF assay: pIC50 of OC[C@H]1O[C@@H](n2c(Cl)nc3cc(Cl)c(Cl)cc32)C(O)[C@@H]1F (some centres not stated) = ?
[out] 5.03

[in] Write down the reported pIC50 of OC[C@H]1O[C@@H](n2c(Br)nc3cc(Cl)c(Cl)cc32)[C@H](F)[C@@H]1O , test system: HFF.
[out] 4.77

[in] // map OC[C@H]1O[C@@H](n2c(Cl)nc3cc(Cl)c(Cl)cc32)[C@@H](F)[C@@H]1O to recorded pIC50 (system: HFF)
[out] 5.10

====

# Tested on: Human alphaherpesvirus 1
# assay explanation: Compound was tested for antiviral activity against herpes simplex virus type 1 (HSV-1)
# Assay type: functional, organism-based
reported endpoint: IC50

Some solved entries appear below for comparison.
compound | IC50
CC(C)Nc1nc2cc(Cl)c(Cl)cc2n1[C@@H]1O[C@H](CO)[C@@H](O)[C@H]1F | > 100 µM
OC[C@H]1O[C@@H](n2cnc3cc(Cl)c(Cl)cc32)[C@H](F)[C@@H]1O | > 100 µM
OC[C@H]1O[C@@H](n2c(Cl)nc3cc(Cl)c(Cl)cc32)C(O)[C@@H]1F (some centres not stated) | > 100 µM

[in] # returns recorded IC50 (system: Human alphaherpesvirus 1) for OC[C@H]1O[C@@H](n2c(Br)nc3cc(Cl)c(Cl)cc32)[C@H](F)[C@@H]1O
[out] > 100 µM

[in] Under Human alphaherpesvirus 1: IC50 value of Clc1cc2nc(Cl)n([C@@H]3O[C@H](COC(c4ccccc4)(c4ccccc4)c4ccccc4)[C@@H](OC(c4ccccc4)(c4ccccc4)c4ccccc4)[C@@H]3OC(c3ccccc3)(c3ccccc3)c3ccccc3)c2cc1Cl ?
[out] > 100 µM

[in] Form entry - test system: Human alphaherpesvirus 1; read-out: IC50; compound: OC[C@H]1O[C@@H](n2c(Cl)nc3cc(Cl)c(Cl)cc32)[C@@H](F)[C@@H]1O
[out] 50 µM

[in] # query: IC50 | item O[C@H]1[C@H](OC(c2ccccc2)(c2ccccc2)c2ccccc2)[C@@H](COC(c2ccccc2)(c2ccccc2)c2ccccc2)O[C@H]1n1c(Cl)nc2cc(Cl)c(Cl)cc21 | system: Human alphaherpesvirus 1
[out] > 100 µM

====

// reported pIC50 for each item listed
# System: HFF
# assay explanation: Compound was tested for antiviral activity against human cytomegalovirus (HCMV) by plaque reduction assay using HFF cells
# Assay type: functional, cell-based
pIC50: −log10 of the molar value.

Look over these answered cases.
chemical string | tested on | measured result
O[C@H]1[C@H](OC(c2ccccc2)(c2ccccc2)c2ccccc2)[C@@H](COC(c2ccccc2)(c2ccccc2)c2ccccc2)O[C@H]1n1c(Cl)nc2cc(Cl)c(Cl)cc21 | HFF | < 5.00
OC[C@H]1O[C@@H](n2cnc3cc(Cl)c(Cl)cc32)[C@H](F)[C@@H]1O | HFF | < 4.00
Clc1cc2nc(Cl)n([C@@H]3O[C@H](COC(c4ccccc4)(c4ccccc4)c4ccccc4)[C@@H](OC(c4ccccc4)(c4ccccc4)c4ccccc4)[C@@H]3OC(c3ccccc3)(c3ccccc3)c3ccccc3)c2cc1Cl | HFF | < 5.00

[in] Please report the recorded pIC50 for CC(C)Nc1nc2cc(Cl)c(Cl)cc2n1[C@@H]1O[C@H](CO)[C@@H](O)[C@H]1F .
[out] < 4.00
